Target: Plasminogen (Homo sapiens, UniProt P00747)
Sequence (P00747 97-580 limits assumed): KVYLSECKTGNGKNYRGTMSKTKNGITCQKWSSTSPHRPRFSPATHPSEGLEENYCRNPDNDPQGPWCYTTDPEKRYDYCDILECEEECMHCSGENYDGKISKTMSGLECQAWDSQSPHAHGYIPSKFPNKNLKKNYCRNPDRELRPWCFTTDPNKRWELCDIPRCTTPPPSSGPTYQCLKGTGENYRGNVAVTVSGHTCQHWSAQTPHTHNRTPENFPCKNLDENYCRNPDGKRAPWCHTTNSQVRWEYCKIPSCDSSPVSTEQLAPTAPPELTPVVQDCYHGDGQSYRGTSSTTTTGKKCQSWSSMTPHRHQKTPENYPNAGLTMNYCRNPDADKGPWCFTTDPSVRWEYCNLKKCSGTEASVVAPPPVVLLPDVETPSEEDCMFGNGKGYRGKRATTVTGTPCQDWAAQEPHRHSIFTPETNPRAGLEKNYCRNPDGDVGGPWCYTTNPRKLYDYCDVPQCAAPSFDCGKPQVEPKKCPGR
Sequence (P00747 581-810 limits assumed): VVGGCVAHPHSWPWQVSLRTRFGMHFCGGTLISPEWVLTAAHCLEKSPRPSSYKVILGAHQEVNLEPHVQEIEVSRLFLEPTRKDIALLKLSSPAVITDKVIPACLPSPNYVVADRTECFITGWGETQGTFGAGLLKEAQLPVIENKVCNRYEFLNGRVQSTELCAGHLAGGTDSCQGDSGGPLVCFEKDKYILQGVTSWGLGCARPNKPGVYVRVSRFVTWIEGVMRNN
Assay: Inhibition of human plasmin using Mes-DSer(Bzl)-Phe-Arg-AMC as substrate by Dixon plot analysis
pKi: −log10 of the molar value.
readout label: pKi

1) N=C(N)c1ccc(CNC(=O)[C@@H]2Cc3ccc(cc3)NC(=O)CCN3CCN(CCC(=O)Nc4ccc(cc4)C[C@@H](NC=O)C(=O)N2)CC3)cc1 ... 8.57
2) N=C(N)c1ccc(CNC(=O)[C@@H]2Cc3ccc(cc3)NC(=O)CCN3CCN(CCC(=O)Nc4ccc(cc4)C[C@@H](NS(=O)(=O)c4ccccc4)C(=O)N2)CC3)cc1 ... 10.15
3) N=C(N)c1ccc(CNC(=O)[C@@H]2Cc3ccc(cc3)NC(=O)CN3CCN(CC3)CC(=O)Nc3ccc(cc3)C[C@@H](NC(=O)OCc3ccccc3)C(=O)N2)cc1 ... 8.28
4) N=C(N)c1ccc(CNC(=O)[C@@H]2Cc3ccc(cc3)NC(=O)CN3CCN(CC3)CC(=O)Nc3ccc(cc3)C[C@@H](NS(=O)(=O)c3ccccc3)C(=O)N2)cc1 ... 9.29
5) CC(C)(C)OC(=O)N[C@@H]1Cc2ccc(cc2)NC(=O)CCN2CCN(CCC(=O)Nc3ccc(cc3)C[C@@H](C(=O)NCc3ccc(CN)cc3)NC1=O)CC2 ... 7.71
6) COC(=O)N[C@@H]1Cc2ccc(cc2)NC(=O)CCN2CCN(CCC(=O)Nc3ccc(cc3)C[C@@H](C(=O)NCc3ccc(C(=N)N)cc3)NC1=O)CC2 ... 9.11

====

Molecular target: Vitamin K-dependent protein C (Homo sapiens, UniProt P04070)
Sequence (P04070 43-197 limits assumed): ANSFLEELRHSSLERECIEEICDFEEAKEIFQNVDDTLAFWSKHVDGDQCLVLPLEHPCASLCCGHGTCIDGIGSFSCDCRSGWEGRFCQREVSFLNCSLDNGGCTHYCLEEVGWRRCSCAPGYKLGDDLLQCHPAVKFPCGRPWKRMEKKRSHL
Sequence (P04070 212-461 limits assumed): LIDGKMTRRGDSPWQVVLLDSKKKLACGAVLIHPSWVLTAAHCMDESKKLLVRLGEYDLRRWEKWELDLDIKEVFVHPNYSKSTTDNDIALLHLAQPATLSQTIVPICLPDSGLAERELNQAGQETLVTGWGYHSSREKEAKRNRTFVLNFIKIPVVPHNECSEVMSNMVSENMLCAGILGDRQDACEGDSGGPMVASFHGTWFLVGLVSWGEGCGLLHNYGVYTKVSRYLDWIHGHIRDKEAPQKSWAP
Assay: Inhibition of human activated Protein C using Mes-DArg-Pro-Arg-AMC as substrate by Dixon plot analysis
readout label: Ki (µM)

1) N=C(N)c1ccc(CNC(=O)[C@@H]2Cc3ccc(cc3)NC(=O)CCN3CCN(CCC(=O)Nc4ccc(cc4)C[C@@H](NC(=O)Cc4ccccc4)C(=O)N2)CC3)cc1 ... 96.5
2) N=C(N)c1ccc(CNC(=O)[C@@H]2Cc3ccc(cc3)NC(=O)CCN3CCN(CCC(=O)Nc4ccc(cc4)C[C@@H](NC(=O)CCc4ccccc4)C(=O)N2)CC3)cc1 ... 28
3) N=C(N)c1ccc(CNC(=O)[C@@H]2Cc3ccc(cc3)NC(=O)CN3CCN(CC3)CC(=O)Nc3ccc(cc3)C[C@@H](NC(=O)CCCc3ccccc3)C(=O)N2)cc1 ... 47.1
4) N=C(N)c1ccc(CNC(=O)[C@@H]2Cc3ccc(cc3)NC(=O)CCN3CCN(CCC(=O)Nc4ccc(cc4)C[C@@H](NS(=O)(=O)NC4CCCCC4)C(=O)N2)CC3)cc1 ... 17
5) CN(C)S(=O)(=O)N[C@@H]1Cc2ccc(cc2)NC(=O)CN2CCN(CC2)CC(=O)Nc2ccc(cc2)C[C@@H](C(=O)NCc2ccc(C(=N)N)cc2)NC1=O ... 74.7
6) N=C(N)c1ccc(CNC(=O)[C@@H]2Cc3ccc(cc3)NC(=O)CN3CCN(CC3)CC(=O)Nc3ccc(cc3)C[C@@H](N)C(=O)N2)cc1 ... 130
7) NCCCCNC(=O)[C@@H]1Cc2ccc(cc2)NC(=O)CCN2CCN(CCC(=O)Nc3ccc(cc3)C[C@@H](NS(=O)(=O)NC3CCCCC3)C(=O)N1)CC2 ... 85.9

====

Biological target: Plasma kallikrein (Homo sapiens, UniProt P03952)
Sequence (P03952 20-390 limits assumed): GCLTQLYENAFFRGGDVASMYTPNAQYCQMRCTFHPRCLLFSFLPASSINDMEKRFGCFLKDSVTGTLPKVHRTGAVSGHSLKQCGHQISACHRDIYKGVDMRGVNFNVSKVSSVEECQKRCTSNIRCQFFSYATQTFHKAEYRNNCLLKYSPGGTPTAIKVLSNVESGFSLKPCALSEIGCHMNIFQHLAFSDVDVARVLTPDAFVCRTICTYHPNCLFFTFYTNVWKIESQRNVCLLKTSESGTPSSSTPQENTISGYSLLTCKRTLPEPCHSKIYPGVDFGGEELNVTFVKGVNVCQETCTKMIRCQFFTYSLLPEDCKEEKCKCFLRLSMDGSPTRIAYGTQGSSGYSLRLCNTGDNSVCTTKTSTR
Sequence (P03952 391-638 limits assumed): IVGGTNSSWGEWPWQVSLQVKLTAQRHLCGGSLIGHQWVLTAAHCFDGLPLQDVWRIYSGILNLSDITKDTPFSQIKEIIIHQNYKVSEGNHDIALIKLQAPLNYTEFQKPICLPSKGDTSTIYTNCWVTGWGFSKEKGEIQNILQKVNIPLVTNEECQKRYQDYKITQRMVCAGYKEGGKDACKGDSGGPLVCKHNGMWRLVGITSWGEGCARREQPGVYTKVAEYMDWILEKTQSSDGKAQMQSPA
Experiment: Inhibition of human plasma kallikrein using Mes-DArg-Pro-Arg-AMC as substrate by Dixon plot analysis
pKi: −log10 of the molar value.
Cut-off 5 on pKi, inclusive. At or above means Met; below means Not met.

1. N=C(N)c1ccc(CNC(=O)[C@@H]2Cc3ccc(cc3)NC(=O)CCN3CCN(CCC(=O)Nc4ccc(cc4)C[C@@H](NC=O)C(=O)N2)CC3)cc1 ... Met
2. NCCCCNC(=O)[C@@H]1Cc2ccc(cc2)NC(=O)CCN2CCN(CCC(=O)Nc3ccc(cc3)C[C@@H](NS(=O)(=O)NC3CCCCC3)C(=O)N1)CC2 ... Not met

====

Entries with their measured log10 of Ki, system UniProtKB P00742:
readout label: log10 of Ki (log10 of the value in µM)

1. CCCCS(=O)(=O)N[C@@H]1Cc2ccc(cc2)NC(=O)CCN2CCN(CCC(=O)Nc3ccc(cc3)C[C@@H](C(=O)NCc3ccc(C(=N)N)cc3)NC1=O)CC2 ... 1.54
2. N=C(N)c1ccc(CNC(=O)[C@@H]2Cc3ccc(cc3)NC(=O)CN3CCN(CC3)CC(=O)Nc3ccc(cc3)C[C@@H](NC(=O)Cc3ccccc3)C(=O)N2)cc1 ... 2.31
3. COC(=O)N[C@@H]1Cc2ccc(cc2)NC(=O)CCN2CCN(CCC(=O)Nc3ccc(cc3)C[C@@H](C(=O)NCc3ccc(C(=N)N)cc3)NC1=O)CC2 ... 1.71
4. N=C(N)c1ccc(CNC(=O)[C@@H]2Cc3ccc(cc3)NC(=O)CN3CCN(CC3)CC(=O)Nc3ccc(cc3)C[C@@H](NC(=O)CCCc3ccccc3)C(=O)N2)cc1 ... 1.31
5. N=C(N)c1ccc(CNC(=O)[C@@H]2Cc3ccc(cc3)NC(=O)CCN3CCN(CCC(=O)Nc4ccc(cc4)C[C@@H](NC(=O)CCc4ccccc4)C(=O)N2)CC3)cc1 ... 1.21
6. N=C(N)c1ccc(CNC(=O)[C@@H]2Cc3ccc(cc3)NC(=O)CN3CCN(CC3)CC(=O)Nc3ccc(cc3)C[C@@H](N)C(=O)N2)cc1 ... 2.06

====

Target: Plasma kallikrein (Homo sapiens, UniProt P03952)
Assay: Inhibition of human plasma kallikrein using Mes-DArg-Pro-Arg-AMC as substrate by Dixon plot analysis
Categories are assigned from the measured Ki using these intervals: low: < 7 µM; middle: ≥ 7 µM and < 10 µM; high: ≥ 10 µM

1) CC(C)(C)OC(=O)N[C@@H]1Cc2ccc(cc2)NC(=O)CCN2CCN(CCC(=O)Nc3ccc(cc3)C[C@@H](C(=O)NCc3ccc(CN)cc3)NC1=O)CC2 ... high
2) NCc1ccc(CNC(=O)[C@@H]2Cc3ccc(cc3)NC(=O)CCN3CCN(CCC(=O)Nc4ccc(cc4)C[C@@H](NS(=O)(=O)NC4CCCCC4)C(=O)N2)CC3)cc1 ... high
3) COC(=O)N[C@@H]1Cc2ccc(cc2)NC(=O)CCN2CCN(CCC(=O)Nc3ccc(cc3)C[C@@H](C(=O)NCc3ccc(C(=N)N)cc3)NC1=O)CC2 ... middle
4) N=C(N)c1ccc(CNC(=O)[C@@H]2Cc3ccc(cc3)NC(=O)CN3CCN(CC3)CC(=O)Nc3ccc(cc3)C[C@@H](NC(=O)Cc3ccccc3)C(=O)N2)cc1 ... middle
5) N=C(N)c1ccc(CNC(=O)[C@@H]2Cc3ccc(cc3)NC(=O)CN3CCN(CC3)CC(=O)Nc3ccc(cc3)C[C@@H](NS(=O)(=O)c3ccccc3)C(=O)N2)cc1 ... low
6) N=C(N)c1ccc(CNC(=O)[C@@H]2Cc3ccc(cc3)NC(=O)CN3CCN(CC3)CC(=O)Nc3ccc(cc3)C[C@@H](N)C(=O)N2)cc1 ... middle
7) NCc1ccc(CNC(=O)[C@@H]2Cc3ccc(cc3)NC(=O)CCN3CCN(CCC(=O)Nc4ccc(cc4)C[C@@H](NS(=O)(=O)c4ccccc4)C(=O)N2)CC3)cc1.O=C(O)C(F)(F)F.O=C(O)C(F)(F)F.O=C(O)C(F)(F)F ... high
8) CCCCS(=O)(=O)N[C@@H]1Cc2ccc(cc2)NC(=O)CCN2CCN(CCC(=O)Nc3ccc(cc3)C[C@@H](C(=O)NCc3ccc(C(=N)N)cc3)NC1=O)CC2 ... low
9) N=C(N)c1ccc(CNC(=O)[C@@H]2Cc3ccc(cc3)NC(=O)CN3CCN(CC3)CC(=O)Nc3ccc(cc3)C[C@@H](NC(=O)CCCc3ccccc3)C(=O)N2)cc1 ... high
10) N=C(N)NCCCCNC(=O)[C@@H]1Cc2ccc(cc2)NC(=O)CCN2CCN(CCC(=O)Nc3ccc(cc3)C[C@@H](NS(=O)(=O)NC3CCCCC3)C(=O)N1)CC2 ... high
11) N=C(N)c1ccc(CNC(=O)[C@@H]2Cc3ccc(cc3)NC(=O)CCN3CCN(CCC(=O)Nc4ccc(cc4)C[C@@H](NS(=O)(=O)c4ccccc4)C(=O)N2)CC3)cc1 ... low

====

Target: Trypsin (Sus scrofa)
Sequence (P00761 whole entry): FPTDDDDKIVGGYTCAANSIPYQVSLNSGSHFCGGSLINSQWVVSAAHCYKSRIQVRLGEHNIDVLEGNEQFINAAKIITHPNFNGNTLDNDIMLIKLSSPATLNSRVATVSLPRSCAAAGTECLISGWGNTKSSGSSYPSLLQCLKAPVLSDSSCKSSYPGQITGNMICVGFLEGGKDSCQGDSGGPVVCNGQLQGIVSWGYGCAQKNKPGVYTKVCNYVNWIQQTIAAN
Label key: true means Ki under 0.6 µM; false means Ki of 0.6 µM or more.

1. N=C(N)c1ccc(CNC(=O)[C@@H]2Cc3ccc(cc3)NC(=O)CN3CCN(CC3)CC(=O)Nc3ccc(cc3)C[C@@H](NS(=O)(=O)NC3CCCCC3)C(=O)N2)cc1 ... true
2. N=C(N)c1ccc(CNC(=O)[C@@H]2Cc3ccc(cc3)NC(=O)CCN3CCN(CCC(=O)Nc4ccc(cc4)C[C@@H](NS(=O)(=O)NC4CCCCC4)C(=O)N2)CC3)cc1 ... true
3. CC(C)(C)OC(=O)N[C@@H]1Cc2ccc(cc2)NC(=O)CCN2CCN(CCC(=O)Nc3ccc(cc3)C[C@@H](C(=O)NCc3ccc(CN)cc3)NC1=O)CC2 ... false
4. N=C(N)c1ccc(CNC(=O)[C@@H]2Cc3ccc(cc3)NC(=O)CN3CCN(CC3)CC(=O)Nc3ccc(cc3)C[C@@H](NC(=O)CCCc3ccccc3)C(=O)N2)cc1 ... false
5. CCCCS(=O)(=O)N[C@@H]1Cc2ccc(cc2)NC(=O)CCN2CCN(CCC(=O)Nc3ccc(cc3)C[C@@H](C(=O)NCc3ccc(C(=N)N)cc3)NC1=O)CC2 ... true
6. N=C(N)c1ccc(CNC(=O)[C@@H]2Cc3ccc(cc3)NC(=O)CN3CCN(CC3)CC(=O)Nc3ccc(cc3)C[C@@H](NC(=O)CCc3ccccc3)C(=O)N2)cc1 ... false
7. N=C(N)c1ccc(CNC(=O)[C@@H]2Cc3ccc(cc3)NC(=O)CCN3CCN(CCC(=O)Nc4ccc(cc4)C[C@@H](NS(=O)(=O)c4ccccc4)C(=O)N2)CC3)cc1 ... true
8. N=C(N)c1ccc(CNC(=O)[C@@H]2Cc3ccc(cc3)NC(=O)CCN3CCN(CCC(=O)Nc4ccc(cc4)C[C@@H](NC(=O)CCc4ccccc4)C(=O)N2)CC3)cc1 ... false
